metric: logP
Format: numeric value only, no unit, no commentary.

Would you please look over these solved cases?
COc1ccc(C=NN=c2ccn(CCCc3ccccc3)cc2)cc1    3.4
O=[N+]([O-])c1ccc(C=NN=c2ccn(CCCCc3ccccc3)cc2)cc1    3.9
Cc1cccc(C)c1C=NN=c1ccn(Cc2ccccc2)cc1    4
C(=NN=c1ccn(Cc2ccccc2)cc1)c1cccc2ccccc12    4.2
COc1ccccc1C=NN=c1ccn(CC=Cc2ccccc2)cc1    3.5

response.value for `Cc1ccc(C=NN=c2ccn(CCCc3ccccc3)cc2)cc1` (field: logP) = 4

----------
Quick list: logP per entry.
Could you keep your reply to the number by itself?

C(CCc1ccccc1)=NN=c1ccn(Cc2ccccc2)cc1    4

Lab book: logP of `Clc1cccc(Cl)c1Cn1ccc(=NN=Cc2cccc3ccccc23)cc1` noted as 4.3

So for `C(=NN=c1ccn(Cc2ccc3ccccc3c2)cc1)c1cccc2ccccc12` , the logged logP turned out to be 4.4

get_value(item= `COc1cccc(OC)c1C=NN=c1ccn(CCCc2ccccc2)cc1` , readout=logP) returns 3.4

----------
metric: logP
API doc: respond with a numeric literal and nothing else, no unit.

Form: compound = `Fc1ccc(C=NN=c2ccn(CCCc3ccccc3)cc2)cc1` ; logP = 3.8

Input `Clc1ccccc1C=NN=c1ccn(Cc2ccccc2)cc1` . Output logP: 3.8

logP for `O=[N+]([O-])c1ccc(C=NN=c2ccn(CC=Cc3ccccc3)cc2)cc1` is 3.8

Documented logP of `COc1cccc(OC)c1C=NN=c1ccn(Cc2ccccc2)cc1` : 3.3

Form field logP, entry `Cc1ccc(C)c(-n2ccc(=NN=Cc3ccc(Cl)cc3)cc2)c1` : 4

Lookup result for `COc1ccccc1C=NN=c1ccn(Cc2c(Cl)cccc2Cl)cc1` ; measured logP: 3.4

In plain terms, `Fc1ccc(Cn2ccc(=NN=CCCc3ccccc3)cc2)cc1` has a documented logP of 3.9

Input `Fc1ccc(Cn2ccc(=NN=Cc3ccc(Cl)cc3)cc2)cc1` . Output logP: 3.8

The compound listed as `Clc1ccc(C=NN=c2ccn(CCCc3ccccc3)cc2)cc1` shows logP equal to 3.9

Kindly note the recorded logP for `C(=NN=c1ccn(CCCCc2ccccc2)cc1)c1c2ccccc2cc2ccccc12` , which is 4.4

compound `C(=NN=c1ccn(Cc2ccccc2)cc1)c1c2ccccc2cc2ccccc12` , logP observed: 4.3

----------
Entries annotated with measured logP

Clc1cccc(Cl)c1C=NN=c1ccn(CCCCCc2ccccc2)cc1    4
Cc1ccc(C=NN=c2ccn(CCCN3C(=O)c4ccccc4C3=O)cc2)cc1    3.6
Clc1ccc(C=NN=c2ccn(Cc3ccccc3)cc2)cc1    3.8
COc1ccc(C=NN=c2ccn(CCc3ccccc3)cc2)cc1    3.4
O=C1c2ccccc2C(=O)N1CCCn1ccc(=NN=Cc2ccc3ccccc3c2)cc1    4.1
Oc1ccccc1C=NN=c1ccn(CCCc2ccccc2)cc1    3.3

The reported value for `Oc1ccccc1C=NN=c1ccn(CCc2ccccc2)cc1` in terms of logP is 3.3

Sample `Clc1ccc(C=NN=c2ccn(Cc3ccccc3I)cc2)cc1` ; logP observed: 3.9

----------
The reader will find reported logP values listed item by item below.
Please give the numeric answer without any surrounding text.

C(=NN=c1ccn(CCCCCc2ccccc2)cc1)c1cccc2ccccc12    4.4
Cc1ccc(C=NN=c2ccn(CCCCc3ccccc3)cc2)cc1    4
COc1cccc(OC)c1C=NN=c1ccn(CCc2ccccc2)cc1    3.4

Per the record, `COc1ccccc1C=NN=c1ccn(Cc2ccc3ccccc3c2)cc1` has logP of 3.4

The measured logP associated with `Oc1ccccc1C=NN=c1ccn(Cc2c(Cl)cccc2Cl)cc1` reads 3.3

// field: logP; key: `Cc1ccccc1C=NN=c1ccn(Cc2ccccc2)cc1` ; value = 3.9

Per the record, `C(Cc1ccccc1)=NN=c1ccn(CCCc2ccccc2)cc1` has logP of 3.9

Given item `Clc1ccc(C=NN=c2ccn(Cc3ccccc3Br)cc2)cc1` , the value recorded as its logP is 3.9

Reported logP for `Clc1ccc(C=NN=c2ccn(CC=Cc3ccccc3)cc2)cc1` was 3.9

`Cc1ccccc1C=NN=c1ccn(Cc2c(Cl)cccc2Cl)cc1` yielded logP of 3.9

`Cc1cccc(C)c1C=NN=c1ccn(Cc2c(Cl)cccc2Cl)cc1` has a reported logP of 3.3

The value of logP measured for the compound `C(Cc1ccccc1)=NN=c1ccn(Cc2ccccc2)cc1` turned out to be 3.9

Data point: `C(=NN=c1ccn(CCCc2ccccc2)cc1)c1ccc2ccccc2c1` ; logP = 4.3

Hey, just so you know, these numbers are from the SangsterLogP compilation.
